// TGI lookup, one value per entry
# Test system: SF-295 CNS
# test: NCI tumour cell line growth inhibition, 48 h
Where a SMILES comes first, the peptide text is derived from it. [ ]: non-standard residue; d: D form. The star is where a group is joined. ξ: configuration not given here. ξNMeF = CNC(Cc1ccccc1)C(=O)O; NMeV = CN[C@H](C(=O)O)C(C)C; Boc = CC(C)(C)OC(=O)*; OBn = c1ccc(CO*)cc1

CC(C)[C@@H](C(=O)N(C)[C@H](C(=O)N1CCC[C@H]1C(=O)OCc1ccccc1)C(C)C)N(C)C(=O)C(Cc1ccccc1)N(C)C(=O)[C@H](NC(=O)OC(C)(C)C)C(C)C (some centres undefined) (Boc-[dV][ξNMeF][NMeV][NMeV]P-OBn) ... > 31.6 µM
CCCCN=NNc1cn(C2OC(CO)C(O)C2O)c(=O)[nH]c1=O (centres undefined) ... > 100 µM

Which TGI is listed for Cc1cc(=O)oc2c1cc1ccc3cccc4ccc2c1c34 ? > 100 µM

Try this compound next: C=C1N(S(=O)(=O)c2ccc(C)cc2)C(=O)OCC12CCCC2 > 100 µM

----------
log10 TGI listing for selected compounds.
# System: SK-MEL-5 melanoma
# test: NCI tumour cell line growth inhibition, 48 h
Heads up: the numbers are on a log10 scale; they represent TGI in µM.

Examples with their reported log10 TGI follow.
Nc1[nH]nc2nc(-c3cc(Cl)ccc3Cl)cc(-c3ccc(F)cc3)c12 ... 1.53
Cc1ccc(N(C=O)c2c([N+](=O)[O-])cc([N+](=O)[O-])c3c2=[N+]([O-])CN=3)cc1 ... 1.48
N#Cc1c(Cl)cc(C#N)n2c1nc1ccccc12 ... 1.47

What value of log10 TGI on SK-MEL-5 melanoma does CN(C)NC1=C([N+](=O)[O-])C=NN(c2ccccc2)C1 have? 0.81

Further, for CC1(C)CC[C@]2(C(=O)O)CC[C@]3(C)C(=CCC4=C5C[C@H](O)[C@H](O)[C@@](C)(CO)[C@@]5(C)CC[C@]43C)[C@@H]2C1 ? 1.80

O=C(/C=C/c1ccccc1)c1cccc2ccccc12 ? 1.07

Let us now turn to CCN(CC)C1Oc2cc3c(cc2C(c2cc(OC)c(O)c(OC)c2)C1C)OCO3 (stereo unspecified) 1.49

Can you check N#Cc1c2ccccc2c(Cc2ccc3c(c2)OCCOCCOCCOCCOCCO3)c2ccccc12 next? 1.24

Moving on to the next compound: Cc1c(C(=O)c2ccccc2)[n+](=O)c2cc(Cl)c(Cl)cc2n1[O-] 1.46

One more compound: Cn1ncc(C#N)c1-c1ccc2c(c1)CN([C@H](CN)Cc1cccc(F)c1)C2=O 1.40

Another compound to check: O=C1Nc2ccc(Br)cc2/C1=N/S(=O)(=O)O 1.47

Follow-up item: CC12OC(CC(O)C1O)n1c3ccccc3c3c4c(c5c6ccccc6n2c5c31)C(=O)N(CCN1CCOCC1)C4=O (stereo unspecified) 0.46

Item: CCOC(=O)C1=C(C)N(c2ccc(Cl)cc2)C2(O)C=CC(=O)C3=C(O)c4ccccc4C(=O)C312 (stereo unspecified) 1.31

Continue with COc1cc(-c2nn(-c3ccc(NC(=O)Nc4cc(C(F)(F)F)cc(C(F)(F)F)c4)cc3)cc2-c2ccncc2)ccc1Cl 0.47

----------
# Tested on: UO-31 renal
# test: NCI tumour cell line growth inhibition, 48 h
outcomeMeasure: GI50

Answered examples (4):
COc1ccc(Oc2nc3cc(N)cc(N)c3nc2-c2ccccc2)cc1 ... 28500 nM
C#C[C@@]1(O)[C@@H](CO)O[C@@H](n2cc(Br)c3c(Cl)ccnc32)[C@@H]1O ... 2160 nM
Cc1ccc(C[As+](c2ccccc2)(c2ccccc2)c2ccccc2)cc1 ... 12400 nM
CN1CCN(CCCNC(=O)c2c3c(n4ccccc24)C(=O)c2ncccc2C3=O)CC1 ... 1810 nM

Below: the item to evaluate.
What does the record list as GI50 for CCc1nc(C)cn1C(=O)OCc1nc2nc(Cl)nc(N3CCOCC3)c2[nH]1 ? 1010 nM

----------
# System: ACHN renal
# test: NCI tumour cell line growth inhibition, 48 h
outcomeMeasure: TGI (µM)
Quick reminder: number only, in µM, skip the unit.

O=C(/C=C/c1ccccc1)c1cccc2ccccc12 ... 14.3
C=C1c2nc3ccccc3n2C=C(c2ccccc2)N1c1ccc(Cl)cc1 ... 38.4
Oc1ccc2c(=S)cc(-c3ccc(Br)cc3)oc2c1O ... 11.8
O=C1/C(=C\c2ccc(F)cc2)CN(C(=O)c2ccccc2F)C/C1=C\c1ccc(F)cc1 ... 3.6
CCCCCCCCOC(=O)C12Oc3ccc(-c4ccc5c(c4O)C(O)=C4C(=O)CC(C)C(O)C4(C(=O)OCCCCCCCC)O5)c(O)c3C(O)=C1C(=O)CC(C)C2O (centres undefined) ... 25.5

Turning now to a further compound:
Hi! What's the reported TGI for COC(=O)C1C(C(=O)O)C2(c3ccccc3)C(=O)C1(c1ccccc1)C(c1ccccc1)=C2c1ccccc1 (centres undefined) on ACHN renal? 88.1

----------
The compounds listed here are annotated with their TGI.
# Test system: K-562 leukemia
# test: NCI tumour cell line growth inhibition, 48 h

Solved entries (count: 5):
CCOc1cc(-c2nncn2C)ccc1Nc1ncc2cc(C)nc(NCC(C)(C)C)c2n1 ... > 100 µM
Cc1ccc(N(C=O)c2c([N+](=O)[O-])cc([N+](=O)[O-])c3c2=[N+]([O-])CN=3)cc1 ... 82.7 µM
C[C@@H](Nc1cc(F)cc(F)c1)c1cc(C(=O)N(C)C)cc2c(=O)cc(N3CCOCC3)oc12 ... > 100 µM
c1ccc(C2=NN2c2ccccc2)cc1 ... > 100 µM
O=c1[nH]c2c(c(=O)[nH]1)SC(c1ccccc1)C2 (centres undefined) ... > 100 µM

Need TGI of COC(=O)c1cc(CC2Cc3cc4c(cc3C2=O)CCC4)cc2c1CCC2 (centres undefined) , thanks. > 100 µM

Also need CC[C@@H](C)/C=C(C)/C=C/C(=O)c1c(O)c(-c2ccc(OC(=O)[C@@]34CC[C@@](C)(C(=O)O3)C4(C)C)cc2)cn(O)c1=O , thanks. > 50 µM

Query COc1cc2c(cc1OC)C(C(CCCCCC(CCC(C)C)C1NCCc3cc(OC)c(OC)cc31)CCC(C)C)NCC2 (centres undefined) next 0.441 µM

Then this compound: Cc1ccc(/C=N/NC(=O)c2ccccc2Oc2ccccc2)o1 > 100 µM

----------
# System: SK-MEL-5 melanoma
# test: NCI tumour cell line growth inhibition, 48 h
outcomeMeasure: GI50

Reference set (4 entries):
Cc1ccc(/C=N/NC(=O)c2ccccc2Oc2ccccc2)o1 ... 16.4 µM
O=C(Oc1ccccc1)N(c1ccccc1)c1ccccc1 ... 15 µM
Nc1ccccc1C#C/C=C\C#Cc1ccccc1C#CCO ... 6.1 µM
CCCCC(=O)N(c1ccc(Nc2c3ccccc3nc3cc([N+](=O)[O-])ccc23)cc1)S(C)(=O)=O ... 4.25 µM

The record that follows has no GI50 shown yet.
Entry under review: O=C1C=C(NCCO)c2nccc3c2c1nc1ccccc13 . Reported GI50? 16.3 µM

----------
# System: MOLT-4 leukemia
# test: NCI tumour cell line growth inhibition, 48 h
outcomeMeasure: TGI (µM)
Use µM as the unit, but write only the number.

Completed entries (count: 5):
Cn1ncc(C#N)c1-c1ccc2c(c1)CN([C@H](CN)Cc1cccc(F)c1)C2=O ... 27.4
COc1cc(C(=O)/C=C/c2cc(-c3ccc4c(c3)OCO4)n[nH]2)cc(OC)c1OC ... 8.36
O=C1CSC(c2ccccc2O)N1c1ccc2c(c1)Oc1c(Cl)c3c(c(Cl)c1=N2)Oc1cc(N2C(=O)CSC2c2ccccc2O)ccc1N=3 (stereo unspecified) ... 46.4
CCCCCCCCOC(=O)C12Oc3ccc(-c4ccc5c(c4O)C(O)=C4C(=O)CC(C)C(O)C4(C(=O)OCCCCCCCC)O5)c(O)c3C(O)=C1C(=O)CC(C)C2O (stereo unspecified) ... 60.6
O=C(/C=C/c1ccccc1)c1cccc2ccccc12 ... 5.68

Could you share which TGI value was measured for COC(=O)C1C(C(=O)O)C2(c3ccccc3)C(=O)C1(c1ccccc1)C(c1ccccc1)=C2c1ccccc1 (stereo unspecified) ? 36

Now this one: Cn1c(CCCC(=O)O)nc2cc(N(CCCl)CCCl)ccc21 22.6

----------
# Tested on: SNB-19 CNS
# test: NCI tumour cell line growth inhibition, 48 h
# key: entry, value: GI50

Cc1ccc(N)cc1[As]=[As]c1cc(N)ccc1C (stereo unspecified) ... 1680 nM
c1ccc(-c2[nH]ncc2-c2ccnc(-c3ccc(OCCN4CCOCC4)cc3)c2)nc1 ... > 25000 nM
COc1ccc2c(c1)C(=Nc1ccc(F)c(Cl)c1)c1c-2c(Nc2ccc(F)c(Cl)c2)nc2ccccc12 ... 44800 nM
Cc1nc2nc(C)n(CCN3CCOCC3)c(=O)c2c(-c2cccc([N+](=O)[O-])c2)c1C(=O)CCCCCCCCCCN1CCC(c2ccccc2)(c2ccccc2)CC1 ... 2.28 µg/mL
COc1cc2c(cc1OC)C(C(CCCCCC(CCC(C)C)C1NCCc3cc(OC)c(OC)cc31)CCC(C)C)NCC2 (stereo unspecified) ... 1450 nM

Turning to the following molecule.
Which GI50 is listed for CCN1CCN(c2nc(C)cc(NCc3cc(Nc4ccnc5cc(Cl)ccc45)ccc3F)n2)CC1 ? 2910 nM
